- TEST SYSTEM: Metabotropic glutamate receptor 8 (Rattus norvegicus)
- EXPERIMENT: mGluR8 Gi/Go-coupled signaling modulation – cell-based, rat, thallium flux, HTS, primary screen (AID 488969)
- ASSAY CONTEXT: HEK293 rat mGluR8, GIRK thallium flux, FluoZin2; at 10 µM; stronger effect = higher value; submaximal glutamate (EC20) added with thallium
The full ranking holds about 110,000 compounds; the median of “z-score” is about -0.1, and the highest 2% start at about 2. For the sample, the highest values were picked, then their nearest neighbours and some compounds at random.
Label Criterion met when z-score is at or above -0.04; anything below gets Criterion not met.

These recorded examples may help you get a feel for the data.
> print(dat)
                                   molecule     assigned.class
1    Cc1cccc2c(=O)cc(C)n(CC(=O)N3CCCCC3)c12      Criterion met
2          CCNc1nc(NCC)nc(C(=O)Nc2ccccc2)n1  Criterion not met
3  CCOC(=O)c1cccc(NS(=O)(=O)c2c(C)[nH]c(=O)[nH]c2=O)c1      Criterion met
4  CC(C)CC(NC(=O)c1ccc(Cl)cc1)C(=O)O (stereo unspecified)  Criterion not met

## Task Textbook exercise: given the entry O=C(Cc1ccc(Cl)cc1)Nc1ccc(N2CCN(C(=O)c3ccco3)CC2)cc1 , state whether its z-score is greater than or equal to -0.04.
## Result Criterion met

## Task Textbook exercise: given the entry Cc1cccc2c(=O)cc(C)n(Cc3ccccc3)c12 , state whether its z-score is greater than or equal to -0.04.
## Result Criterion not met

## Task Textbook exercise: given the entry CCOC(=O)Cn1c(C)cc(=O)c2cccc(C)c21 , state whether its z-score is greater than or equal to -0.04.
## Result Criterion not met

## Task Textbook exercise: given the entry CC(C)C[C@H](NC(=O)NCCc1ccc(Cl)cc1)C(=O)O , state whether its z-score is greater than or equal to -0.04.
## Result Criterion met

## Task Textbook exercise: given the entry O=C(Cc1ccc(Cl)cc1)Nc1ccc(N2CCN(C(=O)c3ccco3)CC2)c(Cl)c1 , state whether its z-score is greater than or equal to -0.04.
## Result Criterion met

## Task Textbook exercise: given the entry CCOC(=O)c1c(C)[nH]c2c1cc(O)c1ccccc12 , state whether its z-score is greater than or equal to -0.04.
## Result Criterion met

## Task Textbook exercise: given the entry CCc1ccc(S(=O)(=O)N2CC(=O)Nc3ccccc32)cc1 , state whether its z-score is greater than or equal to -0.04.
## Result Criterion not met

====

- TEST SYSTEM: Metabotropic glutamate receptor 8 (Rattus norvegicus) (UniProt P70579)
- Sequence (P70579 whole entry, looked up): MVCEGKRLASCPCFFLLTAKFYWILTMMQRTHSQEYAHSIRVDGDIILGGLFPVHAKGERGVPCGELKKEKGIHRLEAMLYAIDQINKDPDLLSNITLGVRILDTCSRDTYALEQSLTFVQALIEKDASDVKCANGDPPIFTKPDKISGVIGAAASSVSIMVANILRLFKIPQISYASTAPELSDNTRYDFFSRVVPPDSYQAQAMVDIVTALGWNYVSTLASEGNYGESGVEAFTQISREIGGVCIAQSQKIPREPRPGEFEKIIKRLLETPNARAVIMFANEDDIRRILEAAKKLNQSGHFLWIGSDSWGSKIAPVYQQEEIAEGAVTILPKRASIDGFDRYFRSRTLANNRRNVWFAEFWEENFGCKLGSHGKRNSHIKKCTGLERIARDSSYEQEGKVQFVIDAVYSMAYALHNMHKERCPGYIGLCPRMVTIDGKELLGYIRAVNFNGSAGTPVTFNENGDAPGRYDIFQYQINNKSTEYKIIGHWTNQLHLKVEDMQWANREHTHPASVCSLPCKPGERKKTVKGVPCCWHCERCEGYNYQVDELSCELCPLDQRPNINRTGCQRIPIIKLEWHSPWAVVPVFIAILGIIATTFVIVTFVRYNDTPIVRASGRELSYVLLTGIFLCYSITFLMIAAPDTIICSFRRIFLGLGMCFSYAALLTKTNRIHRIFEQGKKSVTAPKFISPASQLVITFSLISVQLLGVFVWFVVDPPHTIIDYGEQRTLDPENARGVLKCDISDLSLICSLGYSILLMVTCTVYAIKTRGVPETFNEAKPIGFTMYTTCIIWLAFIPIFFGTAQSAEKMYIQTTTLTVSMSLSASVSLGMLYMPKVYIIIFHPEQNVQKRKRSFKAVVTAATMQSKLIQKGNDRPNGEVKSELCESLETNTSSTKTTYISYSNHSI
- EXPERIMENT: mGluR8 Gi/Go-coupled signaling modulation – cell-based, rat, thallium flux, HTS, primary screen (AID 488969)
- ASSAY CONTEXT: HEK293 rat mGluR8, GIRK (G protein-gated inwardly rectifying potassium channel) thallium flux, FluoZin2; at 10 µM; stronger effect = higher value; submaximal glutamate (EC20) added with thallium
The full ranking holds about 110,000 compounds; the median of “z-score” is about -0.1, and the highest 2% start at about 2. The entries come from a sample that favours the highest values as a whole.
Kindly state z-score for each of the entries shown.
Give bare numbers.

Observe how each entry below is paired with its result.
> print(dat)
                                    compound    value
 1  Cc1cccc(C)c1OCC(O)CN1CCC(CN2C(=O)c3cccc4cccc(c34)C2=O)CC1 (stereo not drawn)     2.99
 2  O=S1(=O)CC(N2CCOCC2)c2ccccc21 (stereo not drawn)  -0.0158
 3  COCCNC(=O)Nc1ccc2nc(-c3cccs3)c(-c3cccs3)nc2c1   -0.235
 4  CC(C)N=c1scc(-c2cccs2)n1/N=C/c1ccc(O)c(O)c1O     4.07
 5     COc1ccccc1OCCOc1ccc(C(=O)c2ccccc2)cc1     1.04
 6  CCOc1ccccc1C(=O)N[C@H](C(=O)Nc1nc2c(s1)CCCC2)C(C)C     0.39
 7  COC(=O)c1ccc(C(=O)NC(=S)Nc2nc3c(s2)CC(C)CC3)cc1 (stereo not drawn)     0.17
 8  O=C(NC(=S)Nc1nc2c(s1)CCCC2)c1ccc(C(=O)c2ccccc2)cc1     2.41
 9         CN=c1scc(C)n1/N=C/c1ccc(O)c(O)c1O   -0.648
10  O=C(OCc1ccc([N+](=O)[O-])cc1)C1CCN(S(=O)(=O)c2ccccc2)CC1   -0.136

Lab note: each compound below needs its z-score filled in.
1. CCN=c1scc(C)n1/N=C/c1ccsc1
2. Cc1ccc(CNc2oc(-c3ccco3)nc2C#N)cc1
3. O=C(Nc1nc2c(s1)CCCC2)c1cccs1
4. COC(=O)c1ccc(C(=O)NC(=S)Nc2nc3c(s2)CCCC3)cc1
5. Cc1cccc(NC(=S)NCCc2c[nH]c3ccccc23)c1
6. CCCOc1ccc(C(=O)NNC(=S)NC(=O)c2cc(-c3ccc(Cl)cc3)nc3ccccc23)cc1

## Result
1. -0.0195
2. -0.32
3. 0.315
4. 9.51
5. 0.201
6. -0.0891

Lab note: each compound below needs its z-score filled in.
1. Cc1ccc2ncccc2c1[N+](=O)[O-]
2. O=S(=O)(c1ccc(S(=O)(=O)N2CCCC2)cc1)N1CCCCCC1
3. CCN1/C(=C2/OC(=S)N(C)C2=O)Sc2ccccc21
4. O=C(c1cnn2c(C(F)(F)F)cc(-c3ccccc3)nc12)N1CCCc2ccccc21
5. CC(C)(C)c1ccc(C(=O)NC(=S)Nc2nc3c(s2)CCCC3)cc1
6. COCCN=c1scc(-c2cccs2)n1/N=C/c1ccc(O)c(O)c1O

## Result
1. -0.242
2. 0.224
3. 1.02
4. -0.322
5. 1.95
6. 2.93

The compound CCN=c1scc(C)n1/N=C/c1ccc(O)c(O)c1O showed z-score equal to -0.528
